target: rhBACE-1 β-Secretase recombinant human (Homo sapiens); construct: purchased R&D Systems 931-AS; experiment: BACE assay (FRET, fluorogenic peptide substrate); assay type: biochemical; conditions: compound at 10 μM; percentage of the enzyme activity (remaining)
Sequence (P56817 46-457 limits assumed): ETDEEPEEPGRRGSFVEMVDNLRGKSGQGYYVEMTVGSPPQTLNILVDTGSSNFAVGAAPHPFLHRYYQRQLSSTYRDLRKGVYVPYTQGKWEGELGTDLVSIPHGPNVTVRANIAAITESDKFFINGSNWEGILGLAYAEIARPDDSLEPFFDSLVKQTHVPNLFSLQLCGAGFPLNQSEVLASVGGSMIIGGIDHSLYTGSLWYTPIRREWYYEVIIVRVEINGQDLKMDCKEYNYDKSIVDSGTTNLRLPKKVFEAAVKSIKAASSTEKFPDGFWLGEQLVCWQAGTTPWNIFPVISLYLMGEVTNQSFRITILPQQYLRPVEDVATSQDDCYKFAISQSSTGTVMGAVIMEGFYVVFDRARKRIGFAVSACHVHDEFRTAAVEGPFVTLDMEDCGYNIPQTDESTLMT
Could you mark each record met if its % BACE Activity falls strictly under 30%, and not met if it equals or exceeds it?

molecule: CC(C)=CCC/C(C)=C/CC/C(C)=C/CC/C(C)=C/Cc1cc(C(=O)O)ccc1O [Compound 1]
assigned.category: met

molecule: CC(C)=CCC/C(C)=C/Cc1cc(C(=O)O)ccc1OCc1ccccc1 [Compound 27]
assigned.category: met

molecule: CC(C)=CCC/C(C)=C/CC/C(C)=C/Cc1cc(C(=O)O)ccc1OCc1ccccc1 [Compound 26]
assigned.category: not met

molecule: COCOc1ccc(C(=O)O)cc1C/C=C(\C)CCC=C(C)C [Compound 21]
assigned.category: met

molecule: CC(C)=CCC/C(C)=C/CC/C(C)=C/Cc1cc(C(=O)O)ccc1O [Compound 15]
assigned.category: met

molecule: CC(C)=CCC/C(C)=C/Cc1cc(C(=O)O)ccc1O [Compound 14]
assigned.category: not met

molecule: CC(=O)Oc1ccc(C(=O)O)cc1C/C=C(\C)CC/C=C(\C)CC/C=C(\C)CCC=C(C)C [Compound 19]
assigned.category: met

molecule: CC(C)=CCC/C(C)=C/CC/C(C)=C/Cc1cc(C=O)ccc1OCc1ccccc1 [Compound 23]
assigned.category: not met

molecule: CC(C)=CCC/C(C)=C/CC/C(C)=C/CC/C(C)=C/Cc1cc(C(=O)OCc2ccccc2)ccc1OCc1ccccc1 [Compound 17]
assigned.category: not met

molecule: CCNC(=O)c1ccc(O)c(C/C=C(\C)CC/C=C(\C)CC/C=C(\C)CCC=C(C)C)c1 [Compound 18]
assigned.category: not met

molecule: COCOc1ccc(C=O)cc1C/C=C(\C)CCC=C(C)C [Compound 8]
assigned.category: not met

molecule: CC(C)=CCC/C(C)=C/CC/C(C)=C/Cc1cc(C=O)ccc1O [Compound 12]
assigned.category: not met

molecule: COCOc1ccc(C(=O)O)cc1C/C=C(\C)CC/C=C(\C)CCC=C(C)C [Compound 28]
assigned.category: not met

---

molecular target: Recombinant human glycogen synthase kinase 3 beta (Homo sapiens, UniProt P49841); assay: GSK-3 beta inhibition assay (33P-ATP, GS-2 peptide)
Sequence (P49841 whole entry): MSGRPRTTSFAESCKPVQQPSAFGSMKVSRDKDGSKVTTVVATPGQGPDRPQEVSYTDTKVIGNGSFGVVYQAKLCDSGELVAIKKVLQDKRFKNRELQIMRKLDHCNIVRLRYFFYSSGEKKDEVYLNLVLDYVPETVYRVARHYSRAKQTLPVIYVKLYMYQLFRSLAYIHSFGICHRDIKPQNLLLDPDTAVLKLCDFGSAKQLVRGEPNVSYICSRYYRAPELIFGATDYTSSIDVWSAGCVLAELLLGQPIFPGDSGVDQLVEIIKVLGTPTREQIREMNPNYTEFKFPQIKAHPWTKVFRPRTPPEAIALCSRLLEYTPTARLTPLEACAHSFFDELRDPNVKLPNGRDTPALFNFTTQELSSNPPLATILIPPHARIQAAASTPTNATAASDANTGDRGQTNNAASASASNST
Reported IC50 values for a set of molecules
property.label: IC50 (µM)

smiles: CC(C)=CCC/C(C)=C/CC/C(C)=C/CC/C(C)=C/Cc1cc(C=O)ccc1O
tested.target: Recombinant human glycogen synthase kinase 3 beta (Homo sapiens, UniProt P49841)
reported.result: 17.4
//
smiles: CC(C)=CCC/C(C)=C/CC/C(C)=C/Cc1cc(C(=O)O)ccc1O
tested.target: Recombinant human glycogen synthase kinase 3 beta (Homo sapiens, UniProt P49841)
reported.result: 11
//
smiles: CC(C)=CCC/C(C)=C/CC/C(C)=C/CC/C(C)=C/CC/C(C)=C/Cc1cc(O)ccc1O
tested.target: Recombinant human glycogen synthase kinase 3 beta (Homo sapiens, UniProt P49841)
reported.result: 9.97
//
smiles: CC(C)=CCC/C(C)=C/CC/C(C)=C/CC/C(C)=C/Cc1cc(C(=O)O)ccc1O
tested.target: Recombinant human glycogen synthase kinase 3 beta (Homo sapiens, UniProt P49841)
reported.result: 4.42
//
smiles: C/C(=C\CC/C(C)=C/CC/C(C)=C/Cc1cc(C(=O)O)ccc1O)C/C=C/C(C)(C)O
tested.target: Recombinant human glycogen synthase kinase 3 beta (Homo sapiens, UniProt P49841)
reported.result: 55.8
//
smiles: COCOc1ccc(C=O)cc1C/C=C(\C)CCC=C(C)C
tested.target: Recombinant human glycogen synthase kinase 3 beta (Homo sapiens, UniProt P49841)
reported.result: 16
//
smiles: COCOc1ccc(C(=O)O)cc1C/C=C(\C)CC/C=C(\C)CCC=C(C)C
tested.target: Recombinant human glycogen synthase kinase 3 beta (Homo sapiens, UniProt P49841)
reported.result: 18
//
smiles: CC(C)=CCC/C(C)=C/Cc1cc(C=O)ccc1O
tested.target: Recombinant human glycogen synthase kinase 3 beta (Homo sapiens, UniProt P49841)
reported.result: 8.6
